From: patent EP0639573A1

Biological target: Na⁺/H⁺-Exchanger (Oryctolagus cuniculus, UniProt P23791)
Construct: den Na⁺-Influx in die Erythrocyten via Na⁺/H⁺-Austausch flammenphotometrisch bestimmen zu können
Sequence (P23791 whole entry): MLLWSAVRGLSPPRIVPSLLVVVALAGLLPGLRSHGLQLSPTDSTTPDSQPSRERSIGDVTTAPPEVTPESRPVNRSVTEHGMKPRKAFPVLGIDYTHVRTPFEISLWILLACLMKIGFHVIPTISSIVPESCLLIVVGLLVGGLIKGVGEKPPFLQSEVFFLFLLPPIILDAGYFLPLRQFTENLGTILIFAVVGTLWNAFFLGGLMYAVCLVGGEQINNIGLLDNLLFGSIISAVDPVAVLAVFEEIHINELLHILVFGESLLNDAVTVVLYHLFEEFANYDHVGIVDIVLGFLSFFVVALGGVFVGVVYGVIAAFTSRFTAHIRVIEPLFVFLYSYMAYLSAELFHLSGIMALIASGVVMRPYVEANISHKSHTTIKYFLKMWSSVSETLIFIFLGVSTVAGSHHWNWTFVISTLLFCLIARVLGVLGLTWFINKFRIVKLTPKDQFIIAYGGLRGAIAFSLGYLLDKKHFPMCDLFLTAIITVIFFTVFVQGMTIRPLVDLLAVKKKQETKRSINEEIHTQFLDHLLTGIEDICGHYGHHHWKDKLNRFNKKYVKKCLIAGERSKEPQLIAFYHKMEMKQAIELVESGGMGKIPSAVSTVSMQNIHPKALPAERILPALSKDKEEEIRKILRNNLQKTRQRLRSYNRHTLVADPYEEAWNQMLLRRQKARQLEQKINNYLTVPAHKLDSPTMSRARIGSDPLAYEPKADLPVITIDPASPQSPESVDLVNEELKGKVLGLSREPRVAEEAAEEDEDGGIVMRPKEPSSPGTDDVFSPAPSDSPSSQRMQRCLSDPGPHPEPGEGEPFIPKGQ
Assay: Inhibition of the Na+/H+ exchanger of rabbit erythrocytes (amiloride-sensitive Na+ influx, flame photometry)
Conditions: Kaninchenerythrocyten; hyperosmolar salt-sucrose medium, pH 7,4, 37°C; rabbits on 2% cholesterol diet; read-out: IC₅₀
pIC50: −log10 of the molar value.

# Compound, pIC50
records = [
    ("CN1c2ccc(F)cc2CC1C(=O)N=C(N)N (centres unmarked)", 7.30),
    ("CCn1c(C(=O)N=C(N)N)cc2cc(Cl)ccc21", 7.40),
    ("CCCn1c(C(=O)N=C(N)N)cc2cc(Cl)ccc21", 7.30),
    ("Cn1c(C(=O)N=C(N)N)c(Cl)c2cc(Cl)ccc21", 7.30),
    ("Cn1c(C(=O)N=C(N)N)c(Cl)c2cc(F)ccc21", 7.52),
    ("CN1c2ccccc2CC1C(=O)N=C(N)N (centres unmarked)", 6.70),
    ("CCCCn1c(C(=O)N=C(N)N)cc2cc(Cl)ccc21", 6.70),
    ("NC(N)=NC(=O)c1cc2cc(Cl)ccc2n1Cc1ccncc1", 6.52),
]
